Test system: Kochia (Kochia scoparia)
Assay: Test A postemergence
Assay type: in vivo
Conditions: Bassia scoparia, post-emergence, 240 h, Postemergence, 31 g ai/ha; visual injury after approx. 10 d; 0 to 100 scale, 0 no effect, 100 complete control; read-out: Plant response rating, Kochia
PROPERTY_NAME: pest or weed control at 31 g/ha
Your answer should be a number followed by the unit of measure.

* CN1C[C@H](c2ccc(C(F)(F)F)cn2)[C@@H](C(=O)Nc2ccc(F)c(F)c2F)C1=O [Compound 1106] | 0%
* O=C1NCC[C@H](c2ccc(Cl)cc2)[C@H]1C(=O)Nc1cccc(F)c1F [Compound 795] | 0%
* O=C(Nc1ccc(F)c(F)c1F)[C@H]1C(=O)N(C2CC2)CC[C@@H]1c1ccc(F)cc1 [Compound 1004] | 0%

Attention now turns to another entry.
Q. What value of pest or weed control at 31 g/ha on Kochia (Kochia scoparia) does CN1C[C@H](c2ccc(C(F)(F)F)nc2)[C@@](C)(C(=O)Nc2cccc(F)c2F)C1=O [Compound 1109] have?
A. 20%
